Please provide measured pKi for the entries that follow.
Target: hMCHR (MCH receptor) (Homo sapiens)
Construct: (or internally produced); host or cells: CHO (Chinese hamster ovary) cells, membrane preparation
Sequence (Q99705 whole entry): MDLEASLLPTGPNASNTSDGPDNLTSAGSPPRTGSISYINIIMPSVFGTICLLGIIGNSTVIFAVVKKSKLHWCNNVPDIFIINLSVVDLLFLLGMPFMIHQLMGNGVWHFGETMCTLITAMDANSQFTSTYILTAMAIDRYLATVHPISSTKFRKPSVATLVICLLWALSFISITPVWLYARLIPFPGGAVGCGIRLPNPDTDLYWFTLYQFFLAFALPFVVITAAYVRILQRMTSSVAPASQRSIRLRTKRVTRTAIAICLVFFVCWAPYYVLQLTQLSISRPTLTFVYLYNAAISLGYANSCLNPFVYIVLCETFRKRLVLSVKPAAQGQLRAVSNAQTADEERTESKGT
Experiment: MCH Assay PCOP Protocol ([125I]-MCH SPA binding to hMCHR-CHO membranes);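 also: A 0.4–50 nM B 51–500 nM C 501–2500 nM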
Details: [125I]-MCH binding to hMCHR-CHO membranes; class symbols for ranges of Ki; read-out: Activity (Ki range)
Protocol: A reaction mixture of 10 μg hMCHR-CHO overexpressing membranes (from Receptor Biology, Inc., Beltsville, Md., or internally produced) and 100 μg/well WGA-SPA beads (from Amersham Pharmacia Biotech, Inc., Piscataway, N.J.)/100 μl was prepared in MCHR assay buffer (25 mM HEPES, pH 7.4, 10 mM NaCl, 10 mM MgCl2, 5 mM MnCl2, 0.1% BSA). […]
pKi: −log10 of the molar value.

Using the record for O=C(NCC(CCN1CCC(N2CCCCC2)CC1)c1ccc(Cl)c(Cl)c1)Nc1ccc([N+](=O)O)cc1 (stereo not shown) , state its measured pKi.
6.30 to 7.29

Using the record for CN(C)CCCNCCC(CNC(=O)Nc1cc(Cl)cc(Cl)c1)c1ccc(-c2cc(C(F)(F)F)cc(C(F)(F)F)c2)cc1 (stereo not shown) , state its measured pKi.
5.60 to 6.30

Using the record for CN(C)CCCNCCC(CNC(=O)Nc1cc(C(F)(F)F)cc(C(F)(F)F)c1)c1cccc(Cl)c1 (stereo not shown) , state its measured pKi.
5.60 to 6.30

Using the record for O=C(NCC(CCNC1CCCC1)c1ccc(-c2ccsc2)cc1)Nc1cc(Cl)cc(Cl)c1 (stereo not shown) , state its measured pKi.
6.30 to 7.29
